# Tested on: P. aeruginosa 1674623 (MDR)
# method.notes: MIC against resistant strains, Tables 5a-5d
# Format: cell-based
# assay.context: Pseudomonas aeruginosa, n = 3
Here the recorded MIC is given for each entry.
Please respond with the number in µg/mL and leave the unit unwritten.

Sample records with MIC:
{"smiles.data": "CCCC[N+](C)(C)CCOc1cc(/C=C/c2ccc(/C=C/c3cc(OCC[N+](C)(C)CCCC)cc(OCC[N+](C)(C)CCCC)c3)cc2)cc(OCC[N+](C)(C)CCCC)c1.[I-].[I-].[I-].[I-]", "tested.target": "P. aeruginosa 1674623 (MDR)", "MIC / µg/mL": 64}
{"smiles.data": "CCCCCC[N+](C)(C)CCCOc1cc(/C=C/c2ccc(/C=C/c3cc(OCCC[N+](C)(C)CCCCCC)cc(OCCC[N+](C)(C)CCCCCC)c3)cc2)cc(OCCC[N+](C)(C)CCCCCC)c1", "tested.target": "P. aeruginosa 1674623 (MDR)", "MIC / µg/mL": 16}
{"smiles.data": "CCCCCC[N+](C)(C)CCCCCCOc1cc(/C=C/c2cc(OCCCCCC[N+](C)(C)CCCCCC)cc(OCCCCCC[N+](C)(C)CCCCCC)c2)cc(OCCCCCC[N+](C)(C)CCCCCC)c1", "tested.target": "P. aeruginosa 1674623 (MDR)", "MIC / µg/mL": 8}

API: the following record is the query input.
Problem: Would you kindly share the measured MIC for CCCCCC[N+](C)(C)CCCCOc1cc(/C=C/c2ccc(/C=C/c3cc(OCCCC[N+](C)(C)CCCCCC)cc(OCCCC[N+](C)(C)CCCCCC)c3)cc2)cc(OCCCC[N+](C)(C)CCCCCC)c1.[I-].[I-].[I-].[I-] ?
Solution: 16

====

# Tested on: P. aeruginosa 1674623 (MDR)
# method.notes: MIC against resistant strains, Tables 5a-5d
# Assay type: cell-based
# assay.context: Pseudomonas aeruginosa, n = 3
Form field: MIC (one value per entry).

Worked cases, answers included:
{"compound": "C[N+](C)(C)CCCCOc1cc(/C=C/c2ccc(/C=C/c3cc(OCCCC[N+](C)(C)C)cc(OCCCC[N+](C)(C)C)c3)cc2)cc(OCCCC[N+](C)(C)C)c1.[I-].[I-].[I-].[I-] [Formula F]", "MIC": "> 64 µg/mL"}
{"compound": "CCC[N+](C)(C)CCCCOc1cc(/C=C/c2ccc(/C=C/c3cc(OCCCC[N+](C)(C)CCC)cc(OCCCC[N+](C)(C)CCC)c3)cc2)cc(OCCCC[N+](C)(C)CCC)c1 [Formula Q]", "MIC": "> 64 µg/mL"}

Let us examine a further case.
Problem: Provide the documented MIC with P. aeruginosa 1674623 (MDR) as the system for CC[N+](C)(C)CCCCOc1cc(/C=C/c2ccc(/C=C/c3cc(OCCCC[N+](C)(C)CC)cc(OCCCC[N+](C)(C)CC)c3)cc2)cc(OCCCC[N+](C)(C)CC)c1.[I-].[I-].[I-].[I-] [Formula P]
Solution: > 64 µg/mL
